method notes: yeast display, Sf9 membrane polyspecificity reagent, FACS + sequencing; frameworks hold sequencing errors
metric: polyreactivity (PSR sort gate)

[[record]]
biopolymer_sequence = "QVQLVESGGGLVQAGGSLRLSCAASGSIFYSNAMGWYRQAPGKEREFVAAISAGGGSTYYADSVKGRFTISRDNAKNTVYLQMNSLKPEDTAVYYCAATDEYYIQVWFPYDYWGQGTQVTVSW"
endpoint_value = "low polyreactivity"

[[record]]
biopolymer_sequence = "QVQLVESGGGLVQAGGSLRLSCAASGSIFFQYGMGWYRQAPGKEREFVAAISVSGGSTYYADSVKGRFTISRDNAKNTVYLQMNSLKPEDTAVYYCAAEFRGDTTSLVYASSYDYWGQGTQVTVSS"
endpoint_value = "low polyreactivity"


Origin of the recorded values: the nanobody polyreactivity screen of Harvey et al. (2022)
